- SYSTEM_NAME: Solute carrier family 22 member 2 (Homo sapiens, UniProt O15244)
- Sequence (O15244 whole entry): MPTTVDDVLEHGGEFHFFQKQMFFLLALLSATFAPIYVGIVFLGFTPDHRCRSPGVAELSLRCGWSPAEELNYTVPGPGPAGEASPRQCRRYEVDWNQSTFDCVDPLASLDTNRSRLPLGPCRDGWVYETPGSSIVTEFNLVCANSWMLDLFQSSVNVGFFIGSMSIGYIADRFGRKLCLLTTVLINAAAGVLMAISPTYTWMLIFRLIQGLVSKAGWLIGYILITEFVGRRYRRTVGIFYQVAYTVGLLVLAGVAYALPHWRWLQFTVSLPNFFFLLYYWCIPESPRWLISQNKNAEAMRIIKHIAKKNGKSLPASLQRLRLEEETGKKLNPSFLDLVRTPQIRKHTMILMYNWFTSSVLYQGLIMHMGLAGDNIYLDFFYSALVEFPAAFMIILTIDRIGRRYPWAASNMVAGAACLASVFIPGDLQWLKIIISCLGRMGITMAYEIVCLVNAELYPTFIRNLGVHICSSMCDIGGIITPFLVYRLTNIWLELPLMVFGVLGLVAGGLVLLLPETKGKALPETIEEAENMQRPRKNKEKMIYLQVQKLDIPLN
- TEST_METHOD_NOTES: Inhibition of OCT2(unknown origin)-mediated ASP+ uptake in HEK293 cells expressing OCT2 using ASP+ as substrate incubated for 5 mins
# log10 of IC50 annotations
Note: values are log10 of IC50 expressed in µM.

See these solved cases before continuing.
| MOLECULE | SYSTEM_NAME | VALUE_MEASURED |
| --- | --- | --- |
| COc1cc(O)c2c(c1)oc(=O)c1c3cc(O)c(O)cc3oc21 [WEDELOLACTONE] | Solute carrier family 22 member 2 (Homo sapiens, UniProt O15244) | 1.24 |
| COc1ccc(-c2oc3cc(OC)cc(OC)c3c(=O)c2OC)cc1 [TETRAMETHYLKAEMPFEROL] | Solute carrier family 22 member 2 (Homo sapiens, UniProt O15244) | 1.60 |
| CC(C)=CCc1cc(-c2cc(=O)c3c(O)cc(O)c(CC=C(C)C)c3o2)cc(O)c1O | Solute carrier family 22 member 2 (Homo sapiens, UniProt O15244) | 1.52 |
| C[C@@H]1CC[C@@]2(OC1)O[C@H]1C[C@H]3[C@@H]4CC=C5C[C@@H](O)C[C@@H](O[C@@H]6O[C@H](C)[C@H](O)[C@H](O[C@@H]7OC[C@@H](O)[C@H](O)[C@H]7O)[C@H]6O[C@@H]6O[C@@H](C)[C@H](O)[C@@H](O)[C@H]6O)[C@]5(C)[C@H]4CC[C@]3(C)[C@H]1[C@@H]2C | Solute carrier family 22 member 2 (Homo sapiens, UniProt O15244) | 1.28 |
| O=c1cc(-c2ccc(O)c(O)c2)oc2cc(O)cc(O)c12 [LUTEOLIN] | Solute carrier family 22 member 2 (Homo sapiens, UniProt O15244) | 1.61 |
| C[C@H]1O[C@@H](O[C@H]2CC[C@@]3(C)[C@@H](CC[C@]4(C)[C@@H]3C=CC3=C5CC(C)(C)CC[C@]5(CO)[C@@H](O)C[C@]34C)[C@]2(C)CO)[C@H](O)[C@@H](O[C@@H]2O[C@H](CO)[C@@H](O)[C@H](O)[C@H]2O)[C@H]1O | Solute carrier family 22 member 2 (Homo sapiens, UniProt O15244) | 1.84 |
| CNC(=C[N+](=O)[O-])NCCSCc1ccc(CN(C)C)o1 [RANITIDINE] | Solute carrier family 22 member 2 (Homo sapiens, UniProt O15244) | 3.21 |
| NC12CC3CC(CC(C3)C1)C2 [AMANTADINE] | Solute carrier family 22 member 2 (Homo sapiens, UniProt O15244) | 1.66 |

Continue with the molecule presented below.
Please fill in: log10 of IC50 reported for C/C=C1\C2CC(=O)OC[C@@H](c3ccc(O)c(O)c3)OC[C@H]3O[C@@H](O[C@@H]1OC=C2C(=O)OC)[C@H](O)[C@@H](O)[C@@H]3O = 3.10

###

- SYSTEM_NAME: Solute carrier family 22 member 1 (Homo sapiens)
- Sequence (O15245 whole entry): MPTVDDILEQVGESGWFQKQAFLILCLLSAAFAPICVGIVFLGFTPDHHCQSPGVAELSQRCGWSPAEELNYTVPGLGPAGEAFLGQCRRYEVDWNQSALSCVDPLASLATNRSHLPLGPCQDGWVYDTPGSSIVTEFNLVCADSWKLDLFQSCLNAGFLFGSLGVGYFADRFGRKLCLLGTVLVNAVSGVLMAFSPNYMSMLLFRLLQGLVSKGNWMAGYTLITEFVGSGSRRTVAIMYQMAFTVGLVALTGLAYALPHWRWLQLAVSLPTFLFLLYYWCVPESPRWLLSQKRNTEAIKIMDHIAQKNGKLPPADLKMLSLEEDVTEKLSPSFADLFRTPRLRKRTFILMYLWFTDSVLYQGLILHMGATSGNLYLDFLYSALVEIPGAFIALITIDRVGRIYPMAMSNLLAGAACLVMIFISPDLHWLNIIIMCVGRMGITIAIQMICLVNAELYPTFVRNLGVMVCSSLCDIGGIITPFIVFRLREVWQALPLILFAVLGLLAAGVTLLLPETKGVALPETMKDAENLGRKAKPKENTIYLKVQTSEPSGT
- TEST_METHOD_NOTES: Inhibition of OCT1(unknown origin)-mediated ASP+ uptake in HEK293 cells expressing OCT1 using ASP+ as substrate incubated for 5 mins
OUTCOME_MEASURE: IC50

See these solved cases before continuing.
| COMPOUND_STRING | VALUE_MEASURED |
| --- | --- |
| COc1cc(O)c2c(c1)oc(=O)c1c3cc(O)c(O)cc3oc21 | 38.4 µM |
| COc1ccc(-c2oc3cc(OC)cc(OC)c3c(=O)c2OC)cc1 | 47 µM |
| NC12CC3CC(CC(C3)C1)C2 | 39.6 µM |
| C[C@@H]1CC[C@@]2(OC1)O[C@H]1C[C@H]3[C@@H]4CC=C5C[C@@H](O)C[C@@H](O[C@@H]6O[C@H](C)[C@H](O)[C@H](O[C@@H]7OC[C@@H](O)[C@H](O)[C@H]7O)[C@H]6O[C@@H]6O[C@@H](C)[C@H](O)[C@@H](O)[C@H]6O)[C@]5(C)[C@H]4CC[C@]3(C)[C@H]1[C@@H]2C | 41.3 µM |
| O=c1cc(-c2ccc(O)cc2)oc2cc(O)cc(O)c12 | 38.9 µM |

Value of measured IC50 for the entry CC(C)=CCc1cc(-c2cc(=O)c3c(O)cc(O)c(CC=C(C)C)c3o2)cc(O)c1O : 40.2 µM

For C[C@H]1O[C@@H](O[C@H]2CC[C@@]3(C)[C@@H](CC[C@]4(C)[C@@H]3C=CC3=C5CC(C)(C)CC[C@]5(CO)[C@@H](O)C[C@]34C)[C@]2(C)CO)[C@H](O)[C@@H](O[C@@H]2O[C@H](CO)[C@@H](O)[C@H](O)[C@H]2O)[C@H]1O the compound record lists IC50 as 35.2 µM

// C/C=C1\C2CC(=O)OC[C@@H](c3ccc(O)c(O)c3)OC[C@H]3O[C@@H](O[C@@H]1OC=C2C(=O)OC)[C@H](O)[C@@H](O)[C@@H]3O : IC50 value = 47.3 µM

Summary for this compound, CC(C)=CCc1c(O)cc(O)c2c(=O)c(O[C@@H]3O[C@@H](C)[C@H](O)[C@@H](O)[C@H]3O[C@@H]3O[C@H](CO)[C@@H](O)[C@H](O)[C@H]3O)c(-c3ccc(O)cc3)oc12 : IC50 is 11.2 µM

The compound C[C@@]12C[C@@]3(O)O[C@@H](O1)[C@]1(COC(=O)c4ccccc4)[C@H]3C[C@@]12O[C@@H]1O[C@H](COC(=O)c2ccccc2)[C@@H](O)[C@H](O)[C@H]1O showed IC50 equal to 3.46 µM

Query CNC(=C[N+](=O)[O-])NCCSCc1ccc(CN(C)C)o1 yields IC50 of 28 µM

Given item O=c1cc(-c2ccc(O)c(O)c2)oc2cc(O)cc(O)c12 , the value recorded as its IC50 is 46.1 µM

###

- SYSTEM_NAME: Solute carrier family 22 member 2 (Homo sapiens, UniProt O15244)
- TEST_METHOD_NOTES: Inhibition of OCT2(unknown origin)-mediated ASP+ uptake in HEK293 cells expressing OCT2 using ASP+ as substrate incubated for 5 mins
The molecules listed here are annotated with their pIC50.
# log scale: pIC50 equals minus log10 of the concentration in mol/L

Before answering, review these 2 worked examples.
| MOLECULE | SYSTEM_NAME | pIC50 |
| --- | --- | --- |
| CC(C)=CCc1c(O)cc(O)c2c(=O)c(O[C@@H]3O[C@@H](C)[C@H](O)[C@@H](O)[C@H]3O[C@@H]3O[C@H](CO)[C@@H](O)[C@H](O)[C@H]3O)c(-c3ccc(O)cc3)oc12 | Solute carrier family 22 member 2 (Homo sapiens, UniProt O15244) | 4.25 |
| O=c1cc(-c2ccc(O)cc2)oc2cc(O)cc(O)c12 [APIGENIN] | Solute carrier family 22 member 2 (Homo sapiens, UniProt O15244) | 4.51 |

Then there is this molecule:
Bench note, Solute carrier family 22 member 2 (Homo sapiens, UniProt O15244): entry C[C@@]12C[C@@]3(O)O[C@@H](O1)[C@]1(COC(=O)c4ccccc4)[C@H]3C[C@@]12O[C@@H]1O[C@H](COC(=O)c2ccccc2)[C@@H](O)[C@H](O)[C@H]1O , its pIC50 = 2.38

###

- Test system: HEK293
- TEST_METHOD_NOTES: Cytotoxicity against HEK293 cells harboring empty vector assessed as reduction in cell viability at 250 uM incubated for 12 hrs by resazurin dye based assay
- Format: toxicity
- APPLIED_CONDITIONS: human, hek293, 12 h

| COMPOUND_STRING | Activity |
| --- | --- |
| C/C=C1\C2CC(=O)OC[C@@H](c3ccc(O)c(O)c3)OC[C@H]3O[C@@H](O[C@@H]1OC=C2C(=O)OC)[C@H](O)[C@@H](O)[C@@H]3O | Non-Toxic |
| COc1ccc(-c2oc3cc(OC)cc(OC)c3c(=O)c2OC)cc1 | Non-Toxic |
| C[C@@H]1CC[C@@]2(OC1)O[C@H]1C[C@H]3[C@@H]4CC=C5C[C@@H](O)C[C@@H](O[C@@H]6O[C@H](C)[C@H](O)[C@H](O[C@@H]7OC[C@@H](O)[C@H](O)[C@H]7O)[C@H]6O[C@@H]6O[C@@H](C)[C@H](O)[C@@H](O)[C@H]6O)[C@]5(C)[C@H]4CC[C@]3(C)[C@H]1[C@@H]2C | Non-Toxic |
